Record set of IC50 for target or system Lck (Homo sapiens).

Chem Smiles: CC(C)COC(=O)Nc1ccc(-c2cnc3c(-c4ccc(N5CCN(C)CC5)cc4)cnn3c2N)cc1
IC50: 10 nM

Chem Smiles: CCc1ccc(OC(=O)Nc2ccc(-c3cnc4c(-c5cccc(N6CCN(C)CC6)c5)cnn4c3N)cc2)cc1
IC50: 25 nM

Chem Smiles: Cc1cccc(OC(=O)Nc2ccc(-c3cnc4c(-c5cccc(N6CCN(C)CC6)c5)cnn4c3N)cc2)c1C
IC50: 25 nM
